Biological target: hFZD7 CRD-Fc (human, UniProt O75084 33-185)
Assay: fluorescence titration, 50 nM labelled peptide vs FZD CRD-Fc dilutions (Monolith NT.115)
pEC50: −log10 of the molar value. Ends that are not written are not given here.
measure_name: pEC50

binder: LPSDDLEFWCHVMY-NH2 (also: 5-carboxyfluorescein (5FAM) label, site not given here, synthetic) [5FAM-Fz7-21]
measure_name: pEC50
measured_number: 6.94

Reference for the values: patent US20190359653A1
